Molecular target: T1, CT receptor of human breast tumor cell lines T-47D and MCF-7 (human, UniProt P30988 25-474)
T1 construct: whole, on cells; Native receptor; also called calcitonin receptor
T1 sequence (looked up): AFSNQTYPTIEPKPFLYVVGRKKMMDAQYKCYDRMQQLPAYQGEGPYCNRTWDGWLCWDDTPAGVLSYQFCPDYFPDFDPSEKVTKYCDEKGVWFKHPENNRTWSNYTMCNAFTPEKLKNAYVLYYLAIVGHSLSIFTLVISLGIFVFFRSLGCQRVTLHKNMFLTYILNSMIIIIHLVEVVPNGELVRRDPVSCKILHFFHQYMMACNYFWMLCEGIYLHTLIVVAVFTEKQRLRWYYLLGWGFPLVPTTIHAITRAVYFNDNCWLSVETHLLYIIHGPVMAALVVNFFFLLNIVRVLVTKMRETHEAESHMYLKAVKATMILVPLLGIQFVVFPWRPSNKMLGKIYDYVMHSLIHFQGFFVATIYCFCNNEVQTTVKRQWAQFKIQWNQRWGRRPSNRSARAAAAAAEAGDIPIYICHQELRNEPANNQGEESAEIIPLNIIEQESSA
Test: displacement of 125I-salmon CT, whole T-47D cells
Starred links: 1 amine or outer side, 2 acyl side, 3 side chain; linkers in the order of their positions; H or OH if unused. Positions of bridges follow the written chain, without caps; N, C: chain ends. Non-standard residues stand in square brackets, D forms with d. Groups on a side chain read outwards from the residue. εLys = N[C@@H](CCCCN[*:1])C(=O)[*:2]; Asu = N[C@@H](CCCCCC(=O)O)C(=O)O; hCys = N[C@@H](CCS)C(=O)O
Known IC50 of a selection of binders

Previously resolved entries follow.
{CH2CO}-SNLSTCVLGKLSC([CH2CO-Gly-Gly-Cys-Lys-NH2])ELHKLQTYPRTNTGSGTP-NH2 (thioether N-6; also: ReO complex, Oxorhenium complex; also called Peptide 12 ReO complex) [CH2CO.SNLST.Cys.VLGKLSC(CH2CO.GGCK.amide)ELHKLQTYPRTNTGSGTP.amide•ReO]
1 nM
SNLST[Asu]VLGKLSC([CH2CO-βDap-Lys-Cys-Lys-NH2])ELHKLQTYPRTDVGAGTP-NH2 (lactam N-6; also: ReO complex of chelator on Cys13, Oxorhenium complex; also called Peptide 18 ReO complex) [SNLST.Asu.VLGKLSC(CH2CO.(β-Dap)KCK.amide)ELHKLQTYPRTDVGAGTP.amide•ReO]
0.55 nM
{CH2CO}-SNLSTCVLGKLSC([CH2CO-εLys-Gly-Cys-Glu-NH2])ELHKLQTYPRTNTGSGTP-NH2 (thioether N-6; also: ReO complex, Oxorhenium complex; also called Peptide 14 ReO complex) [CH2CO.SNLST.Cys.VLGKLSC(CH2CO.(ε-K)GCE.amide)ELHKLQTYPRTNTGSGTP.amide•ReO]
2.6 nM

Now look at this one.
## Task For the binder {CH2CO}-SNLST[hCys]VLGKLSC([CH2CO-Gly-Gly-Cys-Lys-NH2])ELHKLQTYPRTNTGSGTP-NH2 (thioether N-6; also: ReO complex of chelator on Cys13, Oxorhenium complex; also called Peptide 8 ReO complex) [CH2CO.SNLST.Hcy.VLGKLSC(CH2CO.GGCK.amide)ELHKLQTYPRTNTGSGTP.amide•ReO] , give its measured IC50 value.
## Result 0.83 nM
